Origin of values: patent US20240131028A1

test system: ring stage parasites (Pf); assay: Parasite lactate dehydrogenase (LDH) growth assay (Parasite Assay, PfLDH Assay); format: cell-based, P. falciparum; conditions: Plasmodium falciparum, 72 h, Table 4; 72 hours growth, LDH readout; read-out: EC50 (Table 4)
Item-by-item account of pEC50
Schema: pEC50 number; meaning minus log10 of the concentration expressed in molar units.

State its pEC50 on ring stage parasites (Pf): CCC1(CC)CC(=O)N([C@H](CCOC)[C@H]2C[C@@H]2C(=O)NC2CC(C)(C)Oc3cccc(Cl)c32)C(=N)N1 (stereo partly shown) [Example 149A] 9.00

Find the measured pEC50: item CCC1(CC)CC(=O)N([C@H](CCOC)[C@H]2C[C@@H]2C(=O)N[C@H]2c3ccccc3OC(C)(C)[C@@H]2O)C(=N)N1 , target or system ring stage parasites (Pf). 6.78

Look up pEC50 with ring stage parasites (Pf) for this compound: CCC1(CC)CC(=O)N([C@H](CCOC)[C@H]2C[C@@H]2C(=O)N[C@@H]2c3ccccc3OC(C)(C)[C@H]2O)C(=N)N1 8.08

Which measured pEC50 belongs to CCC1(CC)CC(=O)N([C@H](CCOC)[C@H]2C[C@@H]2C(=O)N[C@@H]2CC(C)(C)Oc3ccccc32)C(=N)N1 , tested on ring stage parasites (Pf)? 8.33

Quick check: pEC50 on ring stage parasites (Pf), item CCC1(CC)CC(=O)N([C@H](CCOC)[C@H]2C[C@@H]2C(=O)NC2CC(C)(C)Oc3c(Cl)cccc32)C(=N)N1 (stereo partly shown) [Example 148A] ? 8.57

I'm curious: which pEC50 was measured for CCC1(CC)CC(=O)N([C@H](CCOC)[C@H]2C[C@@H]2C(=O)N[C@H]2CC(C)(C)Oc3ccc(Cl)cc32)C(=N)N1 tested on ring stage parasites (Pf)? 8.96

Next:
Notebook: pull reported pEC50 for ring stage parasites (Pf), entry CCC1(CC)CC(=O)N([C@H](CCOC)[C@H]2C[C@@H]2C(=O)NC2c3cc(Cl)ccc3OC(C)(C)[C@H]2O)C(=N)N1 (stereo partly shown) 8.41

---

Target: PfPMIX (recombinant plasmepsin IX) (Plasmodium falciparum)
Sequence (Q8ILG2 1-627): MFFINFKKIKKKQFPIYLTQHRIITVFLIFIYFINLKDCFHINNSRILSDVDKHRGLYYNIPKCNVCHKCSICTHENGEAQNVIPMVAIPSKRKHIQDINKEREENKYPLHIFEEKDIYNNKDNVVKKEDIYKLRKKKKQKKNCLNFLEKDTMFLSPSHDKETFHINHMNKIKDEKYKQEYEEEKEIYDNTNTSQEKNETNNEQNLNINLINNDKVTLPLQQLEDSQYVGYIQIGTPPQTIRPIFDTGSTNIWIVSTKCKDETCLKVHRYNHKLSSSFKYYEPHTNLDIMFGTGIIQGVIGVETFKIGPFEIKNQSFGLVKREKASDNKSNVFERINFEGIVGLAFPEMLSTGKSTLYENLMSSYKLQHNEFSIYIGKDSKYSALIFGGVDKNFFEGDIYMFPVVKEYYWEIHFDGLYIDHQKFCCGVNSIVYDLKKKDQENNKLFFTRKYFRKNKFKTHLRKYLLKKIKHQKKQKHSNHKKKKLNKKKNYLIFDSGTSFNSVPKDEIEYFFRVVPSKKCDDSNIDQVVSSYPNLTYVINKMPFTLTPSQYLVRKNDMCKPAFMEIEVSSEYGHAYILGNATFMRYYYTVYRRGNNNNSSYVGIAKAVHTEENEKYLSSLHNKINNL
Experiment: FRET based assay for plasmepsin IX cleavage of RON3 peptide substrate
Assay type: biochemical
Conditions: AVG, N=2, pH 5.5
outcomeMeasure: Ki (nM)
Just the number in nM, nothing appended.

Would you mind telling me what Ki value was observed for CCC1(CC)CC(=O)N([C@H](c2cccnc2)[C@H]2C[C@@H]2C(=O)N[C@H]2CC(C)(C)Oc3ccccc32)C(=N)N1 ? 5.95
